# test-details: in vivo
# cond: Balb/c, mouse, po, 10 mg/kg
// values below are reported Tmax
readout-kind: Tmax (min)

{"smiles-notation": "C[C@@H]1CN(c2scnc2-c2nc3ccccc3[nH]2)CCN1C(=O)Cn1cnc2cccnc21", "observed": 60}
{"smiles-notation": "CCOc1ncc(-c2nc(C(F)(F)F)sc2N2CCN(C(=O)Cn3cnc4cccnc43)[C@H](C)C2)cn1", "observed": 30}
{"smiles-notation": "CCOc1ncc(-c2nc(C(F)(F)F)sc2N2CCN(C(=O)Cn3nc(C)nc3C)[C@H](C)C2)cn1", "observed": 30}

----------
// values below are reported Tmax
# test-details: in vivo
# cond: beagle, dog, po, 2 mg/kg

{"smiles-notation": "CCOc1ncc(-c2nc(C(F)(F)F)sc2N2CCN(C(=O)Cn3nc(C)nc3C)[C@H](C)C2)cn1", "Tmax, min": 30}
{"smiles-notation": "Cc1nc(C)n(CC(=O)N2CCN(c3sc(C(F)(F)F)nc3-c3cnc(C(F)(F)F)nc3)C[C@H]2C)n1", "Tmax, min": 60}
